Provide the reported pIC50 of each item.
target: UniProt:P00746; experiment: Human Factor D Assay; assay type: biochemical; conditions: human factor D 80 nM, substrate Z-L-Lys-SBz1 and DTNB 100 μM each, pH 7.5; read-out: IC50
Sequence (P00746 26-253): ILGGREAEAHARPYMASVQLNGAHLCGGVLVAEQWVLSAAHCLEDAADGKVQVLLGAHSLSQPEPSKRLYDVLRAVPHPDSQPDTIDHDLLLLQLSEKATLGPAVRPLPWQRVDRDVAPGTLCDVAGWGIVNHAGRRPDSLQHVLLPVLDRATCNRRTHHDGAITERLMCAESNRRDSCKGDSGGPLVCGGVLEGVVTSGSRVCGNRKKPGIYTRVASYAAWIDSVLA
pIC50: −log10 of the molar value.

// worked examples, pIC50 included
# molecule, measurement_label, result
records = [
    ("CC(=O)c1cn(CC(=O)N2C[C@H](F)C[C@H]2C(=O)NC2CCN(c3ccn(C)n3)C2=O)c2ccc(Nc3cncnc3)cc12 (stereo partly shown) [Compound 64]", "pIC50", "> 6.00"),
    ("CC(=O)c1cn(CC(=O)N2C[C@H](F)C[C@H]2C(=O)Nc2cccc3c2OC(C)(C)C3)c2ccc(Nc3cncnc3)cc12 [Compound 24]", "pIC50", "> 6.00"),
    ("CC(=O)c1cn(CC(=O)N2C[C@H](F)C[C@H]2C(=O)Nc2ncc(Br)cn2)c2ccc(Nc3cncnc3)cc12 [Compound 44]", "pIC50", "> 6.00"),
    ("NC(=O)c1nn(CC(=O)N2C[C@H](F)C[C@H]2C(=O)Nc2cccc(-c3ccccc3Cl)c2F)c2ccc(Nc3cnc(C(F)(F)F)nc3)cc12 [Compound 14]", "pIC50", "> 6.00"),
]

List the reported pIC50 of each molecule below.
1. CC(=O)c1cn(CC(=O)N2C[C@H](F)C[C@H]2C(=O)Nc2nc(-c3ccc4c(c3)CCCC4)cs2)c2ccc(Nc3cncnc3)cc12 [Compound 50]
2. CC(=O)c1cn(CC(=O)N2C[C@H](F)C[C@H]2C(=O)Nc2ccccc2-c2nc3ccccc3s2)c2ccc(Nc3cncnc3)cc12 [Compound 32]
3. CC(=O)c1cn(CC(=O)N2C[C@H](F)C[C@H]2C(=O)Nc2cncc(Br)c2)c2ccc(Nc3cncnc3)cc12 [Compound 21]
4. CC(=O)c1cn(CC(=O)N2C[C@H](F)C[C@H]2C(=O)NC2CCCc3nc(-c4ccc(F)cc4)sc32)c2ccc(Nc3cncnc3)cc12 (stereo partly shown) [Compound 28]

[A]
1. < 5.00
2. < 5.00
3. > 6.00
4. < 5.00

List the reported pIC50 of each molecule below.
1. CC(=O)c1cn(CC(=O)N2C[C@H](F)C[C@H]2C(=O)Nc2nc(-c3cccc(Cl)c3)ns2)c2ccc(Nc3cncnc3)cc12 [Compound 60]
2. CC(=O)c1cn(CC(=O)N2C[C@H](F)C[C@H]2C(=O)Nc2ccc3ncsc3c2)c2ccc(Nc3cncnc3)cc12 [Compound 56]
3. NC(=O)c1nn(CC(=O)N2C[C@H](F)C[C@H]2C(=O)Nc2cccc(Cl)n2)c2ccc(Nc3cccnn3)cc12 [Compound 11]
4. CC(=O)c1cn(CC(=O)N2C[C@H](F)C[C@H]2C(=O)Nc2cc3c(cc2F)OC(F)(F)O3)c2ccc(Nc3cncnc3)cc12 [Compound 35]
5. CC(=O)c1cn(CC(=O)N2C[C@H](F)C[C@H]2C(=O)Nc2ccccc2-c2nncn2C)c2ccc(Nc3cncnc3)cc12 [Compound 61]
6. NC(=O)c1nn(CC(=O)N2C[C@H](F)C[C@H]2C(=O)Nc2cccc(-c3ccccc3Cl)c2F)c2ccc(Nc3cccnn3)cc12 [Compound 9]
7. CC(=O)c1cn(CC(=O)N2C[C@H](F)C[C@H]2C(=O)Nc2cccc(Br)n2)c2ccc(Nc3cncnc3)cc12 [Compound 4]

[A]
["< 5.00", "> 6.00", "> 6.00", "> 6.00", "< 5.00", "> 6.00", "> 6.00"]

List the reported pIC50 of each molecule below.
1. N#Cc1cnc(Nc2ccc3c(c2)c(C(N)=O)nn3CC(=O)N2C[C@H](F)C[C@H]2C(=O)Nc2cccc(-c3ccccc3Cl)c2F)nc1 [Compound 13]
2. NC(=O)c1nn(CC(=O)N2C[C@H](F)C[C@H]2C(=O)Nc2cccc(Cl)n2)c2ccc(Nc3cncnc3)cc12 [Compound 12]
3. CC(=O)c1cn(CC(=O)N2C[C@H](F)C[C@H]2C(=O)Nc2ccc3cn[nH]c3c2)c2ccc(Nc3cncnc3)cc12 [Compound 25]
4. CC(=O)c1cn(CC(=O)N2C[C@H](F)C[C@H]2C(=O)Nc2nc(-c3ccccc3Cl)ns2)c2ccc(Nc3cncnc3)cc12 [Compound 29]

[A]
> 6.00
> 6.00
> 6.00
> 6.00

Hello, the source for this data is patent US9598446B2, in case you need it.
